Test system: H358
test_description: Inhibition assay on tumor cell proliferation (CellTiter-Glo), H358
Type: cell-based, Human
condition_parameters: Homo sapiens, NCI-H358; H358 (wild-type EGFR), 72 hours, 10% bovine serum
outcome_measure: IC50

A selection of reference data follows.
C=CC(=O)Nc1cc(Nc2nccc(-n3ccc4ccccc43)n2)c(OC)cc1N(C)CCN1CCOCC1 [Compound 82]	> 1 µM
C=CC(=O)Nc1cc(Nc2nccc(-n3c(=O)n(C4CC4)c4cc(Cl)ccc43)n2)c(OC)cc1N(C)CCN(C)C [Compound 99]	0.1 to 1 µM
C=CC(=O)Nc1cc(Nc2nccc(-n3ccc4nc(OC)ccc43)n2)c(OC)cc1N(C)CCN(C)C [Compound 20]	0.1 to 1 µM
C=CC(=O)Nc1cc(Nc2nccc(-n3c(=O)n(C(C)C)c4ccccc43)n2)c(C)cc1N(C)CCN(C)C [Compound 127]	> 1 µM
C=CC(=O)Nc1cc(Nc2nccc(-n3c(=O)n(C)c4ccccc43)n2)c(C)cc1N(C)CCN(C)C [Compound 118]	0.1 to 1 µM

Please look up its IC50: C=CC(=O)Nc1cc(Nc2nccc(-n3c(=O)n(C)c4cc(C#N)ccc43)n2)c(OC)cc1N(C)CCN(C)C [Compound 52] 0.1 to 1 µM

Please report the recorded IC50 for C=CC(=O)Nc1cc(Nc2nccc(-n3ccc4cc(F)ccc43)n2)c(OC)cc1N(C)CCN(C)C [Compound 28] . 0.1 to 1 µM

###

Tested on: H358
test_description: Inhibition assay on tumor cell proliferation (CellTiter-Glo), H358
Type: cell-based, Human
condition_parameters: Homo sapiens, NCI-H358; H358 (wild-type EGFR), 72 hours, 10% bovine serum
Listed compounds paired with reported IC50

Guide cases for IC50, answers given:
COc1cc(N(C)CCN(C)C)c(NC(=O)/C=C/CN(C)C)cc1Nc1nccc(-n2ccc3ccccc32)n1	100 to 1000 nM
C=CC(=O)Nc1cc(Nc2nccc(-n3ccc4cc(C#N)ccc43)n2)c(OC)cc1N(C)CCN(C)C	100 to 1000 nM
C=CC(=O)Nc1cc(Nc2nccc(-n3ccc4cc(O)ccc43)n2)c(OC)cc1N(C)CCN(C)C	100 to 1000 nM
C=CC(=O)Nc1cccc(Nc2nc(Nc3ccc(N4CCN(C(C)=O)CC4)cc3OC)ncc2C(F)(F)F)c1 [CO-1686, Rociletinib, reference compound]	100 to 1000 nM
C=CC(=O)Nc1cc(Nc2nccc(-c3cn(C)c4ccccc34)n2)c(OC)cc1N(C)CCN(C)C [AZD9291, Osimertinib, reference compound]	100 to 1000 nM
C=CC(=O)Nc1cc(Nc2nccc(-n3ccc4ccccc43)n2)c(OC)cc1N1CC[C@@H](N(C)C)C1	> 1000 nM
C=CC(=O)Nc1cc(Nc2nccc(-n3c(=O)n(C(C)C)c4cc(F)ccc43)n2)c(OC)cc1N(C)CCN(C)C	100 to 1000 nM
C=CC(=O)Nc1cc(Nc2nccc(-n3cc(Cl)c4ccccc43)n2)c(OC)cc1N(C)CCN(C)C	> 1000 nM

Which IC50 value is on record for C=CC(=O)Nc1cc(Nc2nccc(-n3ccc4cc(Cl)ccc43)n2)c(OC)cc1N(C)CCN(C)C ? > 1000 nM

Item C=CC(=O)Nc1cc(Nc2nccc(-n3c(=O)n(C(C)C)c4cc(O)ccc43)n2)c(OC)cc1N(C)CCN(C)C has what recorded IC50? 100 to 1000 nM

Given CC#CC(=O)Nc1cc(Nc2nccc(-n3ccc4ccccc43)n2)c(OC)cc1N(C)CCN(C)C , state its recorded IC50. > 1000 nM

Look at this compound and give its reported IC50. C=CC(=O)Nc1cc(Nc2nccc(-n3ccc4cc(C(N)=O)ccc43)n2)c(OC)cc1N(C)CCN(C)C 100 to 1000 nM

Suppose we examine the compound C=CC(=O)Nc1cc(Nc2nccc(-n3ccc4ccc(F)cc43)n2)c(OC)cc1N(C)CCN(C)C ; what IC50 value has been reported? 100 to 1000 nM

Please look up its IC50: C=CC(=O)Nc1cc(Nc2nccc(-n3ccc4cc(OCCO)ccc43)n2)c(OC)cc1N(C)CCN(C)C 100 to 1000 nM
